target: GST-tagged KRAS-G12V (2-169) (Homo sapiens, UniProt P01116, G12V); assay: Nucleotide exchange assay (NEA), SOS-mediated, HTRF, KRAS G12V; details: Table 4; IC50 extracted at 90 min; 80 nM SOS
Sequence (P01116 2-169 isoform P01116-2 G12V): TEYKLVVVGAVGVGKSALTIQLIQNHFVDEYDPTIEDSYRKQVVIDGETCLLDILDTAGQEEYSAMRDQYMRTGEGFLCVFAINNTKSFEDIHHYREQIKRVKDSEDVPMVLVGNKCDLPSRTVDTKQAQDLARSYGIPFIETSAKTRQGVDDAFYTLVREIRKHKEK
pIC50: −log10 of the molar value.
measured-parameter: pIC50

compound="CC1(O)CCCCN(c2nc(OC[C@@]34CCCN3C[C@H](F)C4)nc(N3CC4(CCc5sc(N)c(C#N)c54)C3)n2)C1 (stereo partly drawn) [Compound 48]" tested_on="GST-tagged KRAS-G12V (2-169) (Homo sapiens, UniProt P01116, G12V)" measured_parameter=pIC50 measurement="> 8.00"
compound="N#Cc1c(N)sc2c1C1(CC2)CN(c2nc(OC[C@@]34CCCN3C[C@H](F)C4)nc(OC3CCOC3)n2)C1 (stereo partly drawn) [Compound 78]" tested_on="GST-tagged KRAS-G12V (2-169) (Homo sapiens, UniProt P01116, G12V)" measured_parameter=pIC50 measurement="6.00 to 7.00"
compound="CC(c1cccnc1N)N(CCO)c1nc(OC[C@@]23CCCN2C[C@H](F)C3)nc(N2CC3(CCc4sc(N)c(C#N)c43)C2)n1 (single isomer, unassigned) [Compound 122A]" tested_on="GST-tagged KRAS-G12V (2-169) (Homo sapiens, UniProt P01116, G12V)" measured_parameter=pIC50 measurement="> 8.00"

* * *

molecular target: GST-tagged KRAS-G12D (2-169) (Homo sapiens, UniProt P01116, G12D); assay: Nucleotide exchange assay (NEA), SOS-mediated, HTRF, KRAS G12D; type: biochemical; settings: Table 4; IC50 extracted at 30 min; 20 nM SOScat; read-out: NEA G12D IC50
Sequence (P01116 2-169 isoform P01116-2 G12D): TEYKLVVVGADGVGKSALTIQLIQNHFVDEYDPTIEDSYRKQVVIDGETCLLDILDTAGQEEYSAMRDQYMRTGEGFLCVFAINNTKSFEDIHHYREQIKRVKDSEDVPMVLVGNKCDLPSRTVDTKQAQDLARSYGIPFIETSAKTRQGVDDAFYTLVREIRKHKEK
measured-parameter: IC50

molecule="N#Cc1c(N)sc2c1C1(CN(c3nc(OC[C@@]45CCCN4C[C@H](F)C5)nc(N4C5CCC4COC5)n3)C1)SC2 (racemic)" tested_on="GST-tagged KRAS-G12D (2-169) (Homo sapiens, UniProt P01116, G12D)" measurement="100 to 1000 nM"
molecule=N#Cc1c(N)sc2c1C1(CC2)CN(c2nc(OC[C@@]34CCCN3C[C@H](F)C4)nc(N3CCCOCC3)n2)C1 tested_on="GST-tagged KRAS-G12D (2-169) (Homo sapiens, UniProt P01116, G12D)" measurement="10 to 100 nM"
molecule="N#Cc1c(N)sc2c1C1(CN(c3nc(OC[C@@]45CCCN4C[C@H](F)C5)nc(N4C5CNC(=O)C4C5)n3)C1)SC2 (stereo partly drawn)" tested_on="GST-tagged KRAS-G12D (2-169) (Homo sapiens, UniProt P01116, G12D)" measurement="10 to 100 nM"
molecule=C#CCN(c1nc(OC[C@@]23CCCN2C[C@H](F)C3)nc(N2CC3(C2)SCc2sc(N)c(C#N)c23)n1)C1(C#N)CC1 tested_on="GST-tagged KRAS-G12D (2-169) (Homo sapiens, UniProt P01116, G12D)" measurement="< 10 nM"
molecule="N#Cc1c(N)sc2c1C1(CC2)CN(c2nc(OC[C@@]34CCCN3C[C@H](F)C4)nc(N3CCCC4(C3)NC(=O)NC4=O)n2)C1 (stereo partly drawn)" tested_on="GST-tagged KRAS-G12D (2-169) (Homo sapiens, UniProt P01116, G12D)" measurement="< 10 nM"
molecule="CC(c1cccnc1N)N(C)c1nc(OC[C@@]23CCCN2C[C@H](F)C3)nc(N2CC3(CCc4sc(N)c(C#N)c43)C2)n1 (single isomer, unassigned) [Compound 100B]" tested_on="GST-tagged KRAS-G12D (2-169) (Homo sapiens, UniProt P01116, G12D)" measurement="10 to 100 nM"
